Let's look at some substances and their measured pKd.
# System: complementary DNA strand
# protocol: UV-melting / van't Hoff analysis of PNA-DNA hybrid duplexes
# Type: binding
# assay conditions: PNA-DNA duplex; 298 K; UV melting
pKd: −log10 of the molar value.

# substance, pKd
rows = [
    ("H-GCATGTTTGA-NH2 [PNA1] (all peptide nucleic acid (PNA); C-terminal amide)", 8.60),
    ("H-GCATGTTTGA-NH2 [PNA3] (PNA; 3 R-MP-gamma units; C-terminal amide; modified_base (4)..(4) R-MP-gamma-backbone modified nucleotide; modified_base (6)..(6) R-MP-gamma-backbone modified nucleotide; modified_base (8)..(8) R-MP-gamma-backbone modified nucleotide)", 10.29),
    ("H-GCATGTTTGA-NH2 [PNA2] (PNA; 1 R-MP-gamma unit; C-terminal amide; modified_base (6)..(6) R-MP-gamma-backbone modified nucleotide)", 9.49),
    ("H-GCATGTTTGA-NH2 [PNA4] (PNA; 5 R-MP-gamma units; C-terminal amide; modified_base (2)..(2) R-MP-gamma-backbone modified nucleotide; modified_base (4)..(4) R-MP-gamma-backbone modified nucleotide; modified_base (6)..(6) R-MP-gamma-backbone modified nucleotide; modified_base (8)..(8) R-MP-gamma-backbone modified nucleotide; modified_base (10)..(10) R-MP-gamma-backbone modified nucleotide)", 11.46),
]

====

# Tested on: complementary RNA strand
# protocol: UV-melting / van't Hoff analysis of PNA-RNA hybrid duplexes
# Format: binding
# assay conditions: PNA-RNA duplex; 298 K; UV-melting curve fitting
[RMPγPNA-N] = PNA unit with R-MP-gamma backbone modification (N: the base)

# substance, −ΔG° / kcal/mol
measured = [
    ("H-GCATGTTTGA-NH2 [PNA4] (PNA; 5 R-MP-gamma units; C-terminal amide; modified_base (2)..(2) R-MP-gamma-backbone modified nucleotide; modified_base (4)..(4) R-MP-gamma-backbone modified nucleotide; modified_base (6)..(6) R-MP-gamma-backbone modified nucleotide; modified_base (8)..(8) R-MP-gamma-backbone modified nucleotide; modified_base (10)..(10) R-MP-gamma-backbone modified nucleotide)", 17.4),
    ("H-GCATGTTTGA-NH2 [PNA3] (PNA; 3 R-MP-gamma units; C-terminal amide; modified_base (4)..(4) R-MP-gamma-backbone modified nucleotide; modified_base (6)..(6) R-MP-gamma-backbone modified nucleotide; modified_base (8)..(8) R-MP-gamma-backbone modified nucleotide)", 17),
    ("H-GCATGTTTGA-NH2 [PNA5] (all [RMPγPNA-N], methylation of C not given here; C-terminal amide)", 18.6),
    ("H-GCATGTTTGA-NH2 [PNA1] (all peptide nucleic acid (PNA); C-terminal amide)", 14.3),
    ("H-GCATGTTTGA-NH2 [PNA2] (PNA; 1 R-MP-gamma unit; C-terminal amide; modified_base (6)..(6) R-MP-gamma-backbone modified nucleotide)", 16.3),
]

====

Let's look at some substances and their measured −ΔTS°.
# System: complementary RNA strand
# protocol: UV-melting / van't Hoff analysis of PNA-RNA hybrid duplexes
# Format: binding
# assay conditions: PNA-RNA duplex; 298 K; UV-melting curve fitting
[RMPγPNA-N] = PNA unit with R-MP-gamma backbone modification (N: the base)

# substance, −ΔTS° (kcal/mol)
rows = [
    ("H-GCATGTTTGA-NH2 [PNA2] (PNA; 1 R-MP-gamma unit; C-terminal amide; modified_base (6)..(6) R-MP-gamma-backbone modified nucleotide)", 55.4),
    ("H-GCATGTTTGA-NH2 [PNA4] (PNA; 5 R-MP-gamma units; C-terminal amide; modified_base (2)..(2) R-MP-gamma-backbone modified nucleotide; modified_base (4)..(4) R-MP-gamma-backbone modified nucleotide; modified_base (6)..(6) R-MP-gamma-backbone modified nucleotide; modified_base (8)..(8) R-MP-gamma-backbone modified nucleotide; modified_base (10)..(10) R-MP-gamma-backbone modified nucleotide)", 67.6),
    ("H-GCATGTTTGA-NH2 [PNA3] (PNA; 3 R-MP-gamma units; C-terminal amide; modified_base (4)..(4) R-MP-gamma-backbone modified nucleotide; modified_base (6)..(6) R-MP-gamma-backbone modified nucleotide; modified_base (8)..(8) R-MP-gamma-backbone modified nucleotide)", 66.9),
    ("H-GCATGTTTGA-NH2 [PNA1] (all peptide nucleic acid (PNA); C-terminal amide)", 54.7),
    ("H-GCATGTTTGA-NH2 [PNA5] (all [RMPγPNA-N], methylation of C not given here; C-terminal amide)", 68.6),
]

====

Let's look at some substances and their measured Kd.
# Tested on: complementary RNA strand
# protocol: UV-melting / van't Hoff analysis of PNA-RNA hybrid duplexes
# Type: binding
# assay conditions: PNA-RNA duplex; 298 K; UV-melting curve fitting

# substance, measurement target, unit annotation, Kd
rows = [
    ("H-GCATGTTTGA-NH2 [PNA1] (all peptide nucleic acid (PNA); C-terminal amide)", "complementary RNA strand", "nM", 0.035),
    ("H-GCATGTTTGA-NH2 [PNA2] (PNA; 1 R-MP-gamma unit; C-terminal amide; modified_base (6)..(6) R-MP-gamma-backbone modified nucleotide)", "complementary RNA strand", "nM", 0.0012),
]

====

# protocol: Water solubility, saturated concentration by UV-spectroscopy
# Assay type: physicochemical
# assay conditions: saturated solution in water
readout type: Sat. conc. (mM)

# substance, test value
measured = [
    ("H-ACGGGTAGAATAACAT-NH2 [PNA6] (all peptide nucleic acid (PNA); PNA oligomer with free N-terminus and C-terminal amide)", 39),
    ("H-ACGGGTAGAATAACAT-NH2 [PNA9] (PNA; 5 R-MP-gamma units; C-terminal amide; modified_base (3)..(3) R-MP-gamma-backbone modified nucleotide; modified_base (6)..(6) R-MP-gamma-backbone modified nucleotide; modified_base (9)..(9) R-MP-gamma-backbone modified nucleotide; modified_base (12)..(12) R-MP-gamma-backbone modified nucleotide; modified_base (15)..(15) R-MP-gamma-backbone modified nucleotide)", 350),
    ("H-ACGGGTAGAATAACAT-NH2 [PNA8] (PNA; 3 R-MP-gamma units; C-terminal amide; modified_base (1)..(1) R-MP-gamma-backbone modified nucleotide; modified_base (8)..(8) R-MP-gamma-backbone modified nucleotide; modified_base (15)..(15) R-MP-gamma-backbone modified nucleotide)", 108),
    ("H-ACGGGTAGAATAACAT-NH2 [PNA7] (PNA; 1 R-MP-gamma unit; C-terminal amide; modified_base (8)..(8) R-MP-gamma-backbone modified nucleotide)", 76),
]

====

# System: immobilized complementary DNA
# protocol: Surface plasmon resonance (SPR) hybridization kinetics
# Assay type: binding
# assay conditions: SPR, 1:1 binding model
[RMPγPNA-N] = PNA unit with R-MP-gamma backbone modification (N: the base)

# substance, measurement target, association rate constant ka
rows = [
    ("H-GCATGTTTGA-NH2 [PNA3] (PNA; 3 R-MP-gamma units; C-terminal amide; modified_base (4)..(4) R-MP-gamma-backbone modified nucleotide; modified_base (6)..(6) R-MP-gamma-backbone modified nucleotide; modified_base (8)..(8) R-MP-gamma-backbone modified nucleotide)", "immobilized complementary DNA", "620000 M⁻¹ s⁻¹"),
    ("H-GCATGTTTGA-NH2 [PNA4] (PNA; 5 R-MP-gamma units; C-terminal amide; modified_base (2)..(2) R-MP-gamma-backbone modified nucleotide; modified_base (4)..(4) R-MP-gamma-backbone modified nucleotide; modified_base (6)..(6) R-MP-gamma-backbone modified nucleotide; modified_base (8)..(8) R-MP-gamma-backbone modified nucleotide; modified_base (10)..(10) R-MP-gamma-backbone modified nucleotide)", "immobilized complementary DNA", "660000 M⁻¹ s⁻¹"),
    ("H-GCATGTTTGA-NH2 [PNA2] (PNA; 1 R-MP-gamma unit; C-terminal amide; modified_base (6)..(6) R-MP-gamma-backbone modified nucleotide)", "immobilized complementary DNA", "970000 M⁻¹ s⁻¹"),
    ("H-GCATGTTTGA-NH2 [PNA5] (all [RMPγPNA-N], methylation of C not given here; C-terminal amide)", "immobilized complementary DNA", "800000 M⁻¹ s⁻¹"),
    ("H-GCATGTTTGA-NH2 [PNA1] (all peptide nucleic acid (PNA); C-terminal amide)", "immobilized complementary DNA", "470000 M⁻¹ s⁻¹"),
]

====

# Test system: immobilized complementary DNA
# protocol: Surface plasmon resonance (SPR) hybridization kinetics
# Assay type: binding
# assay conditions: SPR; read-out: Kd
pKd: −log10 of the molar value.

# substance, pKd
measured = [
    ("H-GCATGTTTGA-NH2 [PNA1] (all peptide nucleic acid (PNA); C-terminal amide)", 8.55),
]

====

# Test system: complementary DNA strand
# protocol: UV-melting / van't Hoff analysis of PNA-DNA hybrid duplexes
# Format: binding
# assay conditions: PNA-DNA duplex; 298 K; averages of three trials
[RMPγPNA-N] = PNA unit with R-MP-gamma backbone modification (N: the base)
Let's look at some substances and their measured −ΔG°.
readout type: −ΔG° (kcal/mol)

# substance, measurement target, test value
measured = [
    ("H-GCATGTTTGA-NH2 [PNA4] (PNA; 5 R-MP-gamma units; C-terminal amide; modified_base (2)..(2) R-MP-gamma-backbone modified nucleotide; modified_base (4)..(4) R-MP-gamma-backbone modified nucleotide; modified_base (6)..(6) R-MP-gamma-backbone modified nucleotide; modified_base (8)..(8) R-MP-gamma-backbone modified nucleotide; modified_base (10)..(10) R-MP-gamma-backbone modified nucleotide)", "complementary DNA strand", 15.5),
    ("H-GCATGTTTGA-NH2 [PNA2] (PNA; 1 R-MP-gamma unit; C-terminal amide; modified_base (6)..(6) R-MP-gamma-backbone modified nucleotide)", "complementary DNA strand", 12.9),
    ("H-GCATGTTTGA-NH2 [PNA1] (all peptide nucleic acid (PNA); C-terminal amide)", "complementary DNA strand", 11.7),
    ("H-GCATGTTTGA-NH2 [PNA3] (PNA; 3 R-MP-gamma units; C-terminal amide; modified_base (4)..(4) R-MP-gamma-backbone modified nucleotide; modified_base (6)..(6) R-MP-gamma-backbone modified nucleotide; modified_base (8)..(8) R-MP-gamma-backbone modified nucleotide)", "complementary DNA strand", 14.1),
    ("H-GCATGTTTGA-NH2 [PNA5] (all [RMPγPNA-N], methylation of C not given here; C-terminal amide)", "complementary DNA strand", 18.6),
]
